system: LOC_OS07G07230-cb001; assay: thermal shift delta Tm vs DMSO control; higher = stronger stabilization (binding); settings: 12.5 µM; protein concentration 2 µM;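 also: purified Escherichia coli-expressed rice kinase domain construct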
thermal shift delta Tm overview
Be sure to follow the number with its unit.

Check out these entries, answers already filled in.
| structure.smiles.string | observation.type | reported.result |
| --- | --- | --- |
| Cc1cc(Nc2ncnc3ccc(NC4=NC(C)(C)CO4)cc23)ccc1Oc1ccn2ncnc2c1 | thermal shift delta Tm | 0.02 °C |
| FC(F)(F)c1ccc(CNc2ccc(Cc3c[nH]c4ncc(Cl)cc34)cn2)cn1 | thermal shift delta Tm | -0.31 °C |
| CN(C)C/C=C/C(=O)Nc1ccc(C(=O)Nc2cccc(Nc3ncc(Cl)c(-c4c[nH]c5ccccc45)n3)c2)cc1 | thermal shift delta Tm | 0.68 °C |

Consider the record given below.
Prompt: Give the value of thermal shift delta Tm reported for the following: CNC(=O)c1cc(COc2nnc(Nc3ccc(Cl)cc3)c3ccoc23)ccn1
Completion: 0.1 °C

###

tested on: LOC_OS01G01410-cb001; assay: thermal shift delta Tm vs DMSO control; higher = stronger stabilization (binding); conditions: 12.5 µM; protein concentration 2 µM
Counter-ions that a name gives are not always drawn.
This listing pairs compounds with measured thermal shift delta Tm.
Just so you know, I need the unit written after the number.

Previously resolved entries follow.
| compound | measured.on | observation.type | reported.result |
| --- | --- | --- | --- |
| CCOc1ccn(-c2ccc(F)cc2)c(=O)c1C(=O)Nc1ccc(Oc2ccnc(N)c2Cl)c(F)c1 | LOC_OS01G01410-cb001 | thermal shift delta Tm | 0.18 °C |
| Cc1cc(O)c(-c2ccc([C@@H](C)CN)cc2)c2c1[nH]c(=O)c1sccc12 [OTS514 hydrochloride] | LOC_OS01G01410-cb001 | thermal shift delta Tm | 0.18 °C |
| Cc1cnc(Nc2ccc(N3CCN(C)CC3)cc2)nc1Nc1cccc(S(=O)(=O)NC(C)(C)C)c1 | LOC_OS01G01410-cb001 | thermal shift delta Tm | 1.26 °C |
| Oc1cc(O)cc(/C=C/c2ccc(O)c(O)c2)c1 [Piceatannol] | LOC_OS01G01410-cb001 | thermal shift delta Tm | 1.39 °C |

Prompt: Determine from records and report thermal shift delta Tm for O=c1cc(N2CCOCC2)oc2c(-c3ccccc3)cccc12
Completion: 1.06 °C

Prompt: For the compound Cc1ccc(C(=O)Nc2ccc(Oc3cc4cnn(C)c4cc3-c3cn[nH]c3)c(F)c2)c(=O)n1-c1ccc(F)cc1 , give its reported thermal shift delta Tm.
Completion: 0.22 °C

Prompt: Provide one value: measured thermal shift delta Tm of CC1(C)C=Cc2c(ccc3c2OC[C@@H](c2ccc(O)cc2O)C3)O1 [Glabridin]
Completion: 0.95 °C

Prompt: For the compound Cc1ccc(-n2nc(C(C)(C)C)cc2NC(=O)NCc2cc(F)ccc2Oc2ccc3c(cnn3CCO)c2)cc1 [Pexmetinib (ARRY-614)] , report thermal shift delta Tm.
Completion: 0.56 °C

Prompt: Retrieve thermal shift delta Tm measured for CCCCCCCCCC(=O)CC(O)S(=O)(=O)O (stereo unspecified) [Sodium Houttuyfonate] and print it.
Completion: 0.56 °C

Prompt: Using the record for CCCCCCCCCCCCc1ccc(S(=O)(=O)Nc2nncs2)cc1 , state its measured thermal shift delta Tm.
Completion: 0.38 °C

Prompt: Using known records, supply thermal shift delta Tm for CN1CCN(c2ccc3nc(-c4c(N)c5c(F)cccc5[nH]c4=O)[nH]c3c2)CC1 [Dovitinib (TKI258) Lactate]
Completion: 5.96 °C

Prompt: Answer with the recorded thermal shift delta Tm of CC(C)n1ncnc1-c1cn2c(n1)-c1ccc(O[C@@H](C)C(N)=O)cc1OCC2 only.
Completion: 0.47 °C

Prompt: Recall and state the measured thermal shift delta Tm for CC[C@@](C)(Nc1ccnc(-c2c[nH]c3ncccc23)n1)C(=O)NCC(F)(F)F [Decernotinib (VX-509)] .
Completion: 0.58 °C

Prompt: Please indicate thermal shift delta Tm recorded for O=C(Cc1ccc(-c2ccc(OCCN3CCOCC3)cc2)cn1)NCc1ccccc1
Completion: 0.29 °C

Prompt: Supply thermal shift delta Tm value. Item: O=C1c2ccc(Nc3ccc(F)cc3F)cc2CCc2ccc(OC[C@H](O)CO)cc21 [Skepinone-L]
Completion: 0.24 °C

Prompt: Give thermal shift delta Tm for CO[C@@H](C)Cn1c(=O)n(C)c2cnc3ccc(-c4cncc(C(C)(C)O)c4)cc3c21
Completion: 0.7 °C

Prompt: Provide thermal shift delta Tm value for the following compound: C[C@@H]1COCCN1c1cc(C2([S@](C)(=N)=O)CC2)nc(-c2cc[nH]c3nccc2-3)n1
Completion: 0.28 °C

Prompt: Give recorded thermal shift delta Tm. O=c1cc(N2CCOCC2)oc2c(-c3cccc4c3sc3ccccc34)cccc12
Completion: -0.61 °C

Prompt: Return the recorded thermal shift delta Tm value; entry: COc1cc(Nc2ncc3c(n2)-c2ccc(Cl)cc2C(c2c(F)cccc2OC)=NC3)ccc1C(=O)O [Alisertib (MLN8237)]
Completion: 0.87 °C

Prompt: Dear colleague, please send me the reported thermal shift delta Tm for C#Cc1cccc(Nc2ncnc3cc(OCCOC)c(OCCO)cc23)c1 when you can.
Completion: 1.63 °C

Prompt: # return recorded thermal shift delta Tm for input CC(C)(C)NS(=O)(=O)c1cncc(-c2cc(F)c3nc(N)nn3c2)c1
Completion: 0.2 °C

Prompt: Look up thermal shift delta Tm of Cc1c(Cn2c(C)nc3c(C(=O)O)cc(N4CCOCC4)cc32)cccc1C(F)(F)F and report it.
Completion: 0.42 °C

Prompt: Let me know recorded thermal shift delta Tm for C[C@]1(O)C[C@@H](c2nc(-c3ccc4ccc(-c5ccccc5)nc4c3)c3c(N)nccn32)C1 [Linsitinib (OSI-906)] , thanks.
Completion: 1.14 °C

Prompt: Give a short answer stating reported thermal shift delta Tm for COc1cccc(-n2c(=O)[nH]c3cc(Cl)n(-c4ccc(-c5cccc(OC)c5O)cc4)c3c2=O)c1 .
Completion: 0.44 °C

Prompt: Please report the measured thermal shift delta Tm for CC(C)c1cnn2c(NCc3ccccc3)cc(NCCCCCCN)nc12
Completion: 0.34 °C
